inhibition of growth at 30 µg/mL values, listed per item
tested on: Pseudomonas fluorescens; assay: Growth inhibition of Pseudomonas fluorescens NCIM 2059 at 30 ug/ml measured after 8 hrs relative to control; type: functional; details: NCIM 2059, 8 h, read-out: GI
Answer with a number only, understood to be in %.

Solved cases (5 shown):
Cc1nc(-c2ccc(F)cc2)oc1-c1csc(Cc2cccc(Cl)c2)n1 93.3
Cc1nc(-c2ccc(F)cc2)oc1-c1csc(-c2ccc(F)c(Cl)c2)n1 65.8
Cc1ccc(-c2nc(-c3oc(-c4ccc(F)cc4)nc3C)cs2)cc1 20.6
CC1(C)S[C@@H]2[C@H](NC(=O)[C@H](N)c3ccccc3)C(=O)N2[C@H]1C(=O)O 98.8
Cc1ccc(-c2nc(-c3oc(-c4ccccc4)nc3C)cs2)cc1 30.8

The recorded inhibition of growth at 30 µg/mL for entry "Cc1nc(-c2ccc(F)cc2)oc1-c1csc(-c2ccc(Cl)cc2)n1" equals 21.5

The recorded inhibition of growth at 30 µg/mL for entry "Cc1nc(-c2ccc(F)cc2)oc1-c1csc(-c2ccc(Br)cc2)n1" equals 68.3

The recorded inhibition of growth at 30 µg/mL for entry "Cc1nc(-c2ccc(F)cc2)oc1-c1csc(-c2ccccc2)n1" equals 53.1

The recorded inhibition of growth at 30 µg/mL for entry "Cc1nc(-c2ccccc2)oc1-c1csc(-c2ccc(Br)cc2)n1" equals 85.2

The recorded inhibition of growth at 30 µg/mL for entry "Cc1nc(-c2ccccc2)oc1-c1csc(-c2ccc(F)c(Cl)c2)n1" equals 89.6

The recorded inhibition of growth at 30 µg/mL for entry "Cc1nc(-c2ccc(F)cc2)oc1-c1csc(Cc2ccccc2)n1" equals 99.6

The recorded inhibition of growth at 30 µg/mL for entry "Cc1nc(-c2ccccc2)oc1-c1csc(-c2ccccc2)n1" equals 97.7

The recorded inhibition of growth at 30 µg/mL for entry "Cc1nc(-c2ccccc2)oc1-c1csc(Cc2cccc(Cl)c2)n1" equals 95.8

The recorded inhibition of growth at 30 µg/mL for entry "Cc1nc(-c2ccccc2)oc1-c1csc(Cc2ccc(Cl)cc2)n1" equals 95

The recorded inhibition of growth at 30 µg/mL for entry "Cc1nc(-c2ccc(F)cc2)oc1-c1csc(-c2cccc(Cl)c2)n1" equals 48.3

The recorded inhibition of growth at 30 µg/mL for entry "Cc1nc(-c2ccc(F)cc2)oc1-c1csc(Cc2ccc(Cl)cc2)n1" equals 20.9

The recorded inhibition of growth at 30 µg/mL for entry "Cc1nc(-c2ccccc2)oc1-c1csc(-c2cccc(Cl)c2)n1" equals 65.8

###

selectivity ratio values, listed per item
assay: Selectivity index, ratio of GI50 for human A549 cells to MIC for Mycobacterium bovis BCG ATCC 35743 dormant stage; format: toxicity; details: read-out: Selectivity Index
Give a plain numeric answer without units written out.

Cc1nc(-c2ccc(F)cc2)oc1-c1csc(Cc2cccc(Cl)c2)n1 104
Cc1nc(-c2ccccc2)oc1-c1csc(Cc2ccc(Cl)cc2)n1 117
Cc1nc(-c2ccc(F)cc2)oc1-c1csc(Cc2ccccc2)n1 97
Cc1nc(-c2ccc(F)cc2)oc1-c1csc(Cc2ccc(F)cc2)n1 385
Cc1nc(-c2ccccc2)oc1-c1csc(Cc2cccc(Cl)c2)n1 181

Please find the next molecule below.
The recorded selectivity ratio for entry "Cc1nc(-c2ccccc2)oc1-c1csc(-c2ccccc2)n1" equals 9
